Details: pampa, pH 7.4, 18 h
Description: Permeability of compound in PBS at pH 7.4 after 18 hrs by PAMPA
property-label: permeability

> print(dat)
                                      smiles           result
 1  Cn1cc(-c2cc(-c3cc(Cl)cc(OCC4CC4)c3)c(=O)n(-c3cccnc3)c2)c(=O)[nH]c1=O  3.25 10^-6 cm/s
 2  Cc1ocnc1COc1cc(Cl)cc(-c2cc(-c3ccccc3C#N)cn(-c3cccnc3)c2=O)c1  3.04 10^-6 cm/s
 3  O=c1[nH]cc(-c2cc(-c3cc(Cl)c(F)c(OCc4ccccc4Cl)c3)c(=O)n(-c3cccnc3)c2)c(=O)[nH]1  0.73 10^-6 cm/s
 4  Cc1ncoc1COc1cc(Cl)cc(-c2cc(-c3c[nH]c(=O)[nH]c3=O)cn(-c3cccnc3)c2=O)c1  0.24 10^-6 cm/s
 5  Cn1cc(-c2cc(-c3cc(Cl)cc(OCc4ocnc4C(F)(F)F)c3)c(=O)n(-c3cccnc3)c2)c(=O)[nH]c1=O  1.03 10^-6 cm/s
 6  N#Cc1ccccc1-c1cc(-c2cc(Cl)cc(OCCC(F)(F)F)c2)c(=O)n(-c2cccnc2)c1     4 10^-6 cm/s
 7  N#Cc1ccccc1-c1cc(-c2cc(Cl)cc(OCC3CC3)c2)c(=O)n(-c2cccnc2)c1  4.27 10^-6 cm/s
 8  O=c1[nH]cc(-c2cc(-c3cc(Cl)cc(OCc4ocnc4C(F)(F)F)c3)c(=O)n(-c3cccnc3)c2)c(=O)[nH]1  0.57 10^-6 cm/s
 9  Cn1cc(-c2cc(-c3cc(Cl)cc(OCCC(F)(F)F)c3)c(=O)n(-c3cccnc3)c2)c(=O)[nH]c1=O  2.26 10^-6 cm/s
10  Cn1cc(-c2cc(-c3cc(Cl)cc(OCc4scnc4C(F)(F)F)c3)c(=O)n(-c3cccnc3)c2)c(=O)[nH]c1=O  1.16 10^-6 cm/s
